- experimental_target: Metabotropic glutamate receptor 5 (Rattus norvegicus)
- Sequence (P31424 whole entry): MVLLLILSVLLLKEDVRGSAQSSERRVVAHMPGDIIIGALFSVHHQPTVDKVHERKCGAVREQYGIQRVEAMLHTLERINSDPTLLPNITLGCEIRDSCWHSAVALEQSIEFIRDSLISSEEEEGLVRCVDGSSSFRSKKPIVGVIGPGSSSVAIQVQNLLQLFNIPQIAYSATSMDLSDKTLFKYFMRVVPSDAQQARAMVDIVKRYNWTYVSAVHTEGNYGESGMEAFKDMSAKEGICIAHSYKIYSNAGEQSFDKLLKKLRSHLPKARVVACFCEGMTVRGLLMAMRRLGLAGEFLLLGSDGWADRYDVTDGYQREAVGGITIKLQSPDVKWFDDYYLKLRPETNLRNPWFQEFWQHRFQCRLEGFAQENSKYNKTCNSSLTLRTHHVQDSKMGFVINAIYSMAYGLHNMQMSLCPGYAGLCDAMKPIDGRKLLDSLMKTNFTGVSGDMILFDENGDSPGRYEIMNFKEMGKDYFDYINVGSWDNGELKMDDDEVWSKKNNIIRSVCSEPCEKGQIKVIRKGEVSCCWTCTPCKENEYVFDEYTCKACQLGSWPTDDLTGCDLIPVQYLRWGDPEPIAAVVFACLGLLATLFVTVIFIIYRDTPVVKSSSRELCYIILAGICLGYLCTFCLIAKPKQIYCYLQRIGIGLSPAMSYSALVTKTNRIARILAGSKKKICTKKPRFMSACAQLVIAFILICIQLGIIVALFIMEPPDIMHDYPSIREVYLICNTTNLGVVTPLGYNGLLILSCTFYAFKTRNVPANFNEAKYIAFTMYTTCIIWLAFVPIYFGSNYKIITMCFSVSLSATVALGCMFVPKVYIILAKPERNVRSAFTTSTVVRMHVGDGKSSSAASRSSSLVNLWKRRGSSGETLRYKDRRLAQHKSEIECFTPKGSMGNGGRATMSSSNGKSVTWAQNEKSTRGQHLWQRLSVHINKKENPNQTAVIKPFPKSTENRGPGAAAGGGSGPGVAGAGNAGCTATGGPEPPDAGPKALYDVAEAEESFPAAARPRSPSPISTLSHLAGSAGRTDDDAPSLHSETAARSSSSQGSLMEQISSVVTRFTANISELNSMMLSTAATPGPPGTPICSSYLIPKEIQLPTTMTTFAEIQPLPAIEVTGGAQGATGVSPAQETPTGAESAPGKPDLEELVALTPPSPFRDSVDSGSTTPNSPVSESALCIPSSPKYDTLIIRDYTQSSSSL
- procedure_details: Activity at rat mGluR5 receptor measured as intracellular calcium concentration in HEK293 cells
- Type: functional, cell-based
measure: EC50

smiles=N[C@@]1(C(=O)O)C[C@@H](C(=O)O)N(C(=O)/C=C/C(=O)O)C1 recorded_value="> 5 mM"
smiles=N[C@@]1(C(=O)O)C[C@H](C(=O)O)[C@H](C(=O)O)C1 recorded_value="> 1 mM"

###

- experimental_target: Metabotropic glutamate receptor 2 (Rattus norvegicus, UniProt P31421)
- Sequence (P31421 whole entry): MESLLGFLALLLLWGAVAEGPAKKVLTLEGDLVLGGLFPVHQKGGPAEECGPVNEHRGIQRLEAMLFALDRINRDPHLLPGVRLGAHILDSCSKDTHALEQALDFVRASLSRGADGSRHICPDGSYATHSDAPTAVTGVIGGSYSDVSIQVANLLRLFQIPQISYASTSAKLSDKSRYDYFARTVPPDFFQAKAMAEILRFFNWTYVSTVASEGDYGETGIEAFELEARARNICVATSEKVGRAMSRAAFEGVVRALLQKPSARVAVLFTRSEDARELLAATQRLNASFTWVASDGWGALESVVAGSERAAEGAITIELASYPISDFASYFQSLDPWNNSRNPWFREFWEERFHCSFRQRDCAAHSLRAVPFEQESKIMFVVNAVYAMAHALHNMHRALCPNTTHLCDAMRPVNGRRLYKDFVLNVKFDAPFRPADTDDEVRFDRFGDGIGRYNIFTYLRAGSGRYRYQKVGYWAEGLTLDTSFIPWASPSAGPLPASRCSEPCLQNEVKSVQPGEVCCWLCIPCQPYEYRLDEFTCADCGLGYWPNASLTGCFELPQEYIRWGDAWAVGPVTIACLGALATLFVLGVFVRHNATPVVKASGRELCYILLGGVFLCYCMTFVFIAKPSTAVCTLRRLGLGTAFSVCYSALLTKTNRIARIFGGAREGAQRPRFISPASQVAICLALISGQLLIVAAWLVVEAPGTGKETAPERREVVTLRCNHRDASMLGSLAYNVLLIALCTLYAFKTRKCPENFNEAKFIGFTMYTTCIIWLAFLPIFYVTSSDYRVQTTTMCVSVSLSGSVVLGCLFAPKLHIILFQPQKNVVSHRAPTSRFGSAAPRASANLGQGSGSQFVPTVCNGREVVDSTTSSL
- procedure_details: Activity at rat mGluR2 receptor measured as intracellular calcium concentration in HEK293 cells
pEC50: −log10 of the molar value.
# maps each entry to its pEC50
measure: pEC50

smiles=N[C@@]1(C(=O)O)C[C@@H](C(=O)O)N(C(=O)/C=C/C(=O)O)C1 recorded_value="< 2.30"
smiles=N[C@@]1(C(=O)O)C[C@H](C(=O)O)[C@H](C(=O)O)C1 recorded_value="< 3.00"

Data origin, for the record: ChEMBL document CHEMBL1137262
